Give AC50 for every item shown.
# measured target: Alpha-2A adrenergic receptor (Homo sapiens, UniProt P08913); further: assay procedure not described here
# Sequence (P08913 whole entry): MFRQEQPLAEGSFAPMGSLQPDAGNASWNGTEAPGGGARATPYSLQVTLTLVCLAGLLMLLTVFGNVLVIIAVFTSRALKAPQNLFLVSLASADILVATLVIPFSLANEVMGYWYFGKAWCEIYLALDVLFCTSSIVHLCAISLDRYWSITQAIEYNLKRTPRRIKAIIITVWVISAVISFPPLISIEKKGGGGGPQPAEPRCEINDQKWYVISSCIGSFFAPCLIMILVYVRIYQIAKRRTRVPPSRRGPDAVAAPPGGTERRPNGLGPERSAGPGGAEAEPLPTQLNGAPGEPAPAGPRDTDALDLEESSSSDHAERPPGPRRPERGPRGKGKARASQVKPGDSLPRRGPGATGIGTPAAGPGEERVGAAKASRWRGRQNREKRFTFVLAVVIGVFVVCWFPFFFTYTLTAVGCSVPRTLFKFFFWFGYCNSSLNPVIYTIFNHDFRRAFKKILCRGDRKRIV

molecule | AC50
O=C1CN=C(c2ccccc2Cl)c2cc([N+](=O)[O-])ccc2N1 | > 10 µM
COc1cccc2c1C(=O)c1c(O)c3c(c(O)c1C2=O)C[C@@](O)(C(=O)CO)C[C@@H]3O[C@H]1C[C@H](N)[C@H](O)[C@H](C)O1 | > 10 µM
CC(NC(C)(C)C)C(=O)c1cccc(Cl)c1 (centres undefined) | > 10 µM

Now let's try a different one.
So for CCOC(=O)C1=C(C)NC(C)=C(C(=O)OC)C1c1cccc(Cl)c1Cl (centres undefined) , the logged AC50 turned out to be > 10 µM

###

# measured target: Muscarinic acetylcholine receptor M1 (Homo sapiens); further: assay procedure not described here
# Sequence (P11229 whole entry): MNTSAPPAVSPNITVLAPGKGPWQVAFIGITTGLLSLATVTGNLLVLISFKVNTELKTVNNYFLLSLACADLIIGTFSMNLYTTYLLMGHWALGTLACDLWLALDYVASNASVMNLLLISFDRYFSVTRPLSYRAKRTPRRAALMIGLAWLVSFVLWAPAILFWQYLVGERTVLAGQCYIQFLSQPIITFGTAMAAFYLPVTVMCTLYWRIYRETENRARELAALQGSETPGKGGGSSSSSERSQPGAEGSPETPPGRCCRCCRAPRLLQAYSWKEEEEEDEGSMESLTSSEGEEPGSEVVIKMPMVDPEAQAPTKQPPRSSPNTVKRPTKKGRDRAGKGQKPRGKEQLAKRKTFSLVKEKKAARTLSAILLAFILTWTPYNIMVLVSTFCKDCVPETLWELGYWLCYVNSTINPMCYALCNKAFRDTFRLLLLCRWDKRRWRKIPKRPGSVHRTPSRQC
# Type: functional
readout kind: AC50

Example results:
compound | AC50
COC(=O)c1ccc2c(c1)NC(=O)/C2=C(\Nc1ccc(N(C)C(=O)CN2CCN(C)CC2)cc1)c1ccccc1 [NINTEDANIB] | > 30 µM
CC(C)/N=c1\cc2n(-c3ccc(Cl)cc3)c3ccccc3nc-2cc1Nc1ccc(Cl)cc1 [CLOFAZIMINE] | 13 µM
COc1ccc(-c2cc(=S)ss2)cc1 [ANETHOLTRITHION] | > 30 µM
Nc1c2c(nc3ccccc13)CCCC2O (configuration not stated) [VELNACRINE] | > 30 µM

Please give AC50 for each item listed below.
1. CCC(=O)[C@@]1(C)[C@H](C)C[C@H]2[C@@H]3CCC4=CC(=O)C=C[C@]4(C)[C@H]3[C@@H](O)C[C@@]21C [RIMEXOLONE]
2. Nc1nc(Cl)nc2c1ncn2[C@@H]1O[C@H](CO)[C@@H](O)[C@@H]1F [CLOFARABINE]
3. CC(=O)OCC1=C(C(=O)O)N2C(=O)[C@@H](NC(=O)Cc3cccs3)[C@H]2SC1 [CEPHALOTHIN]
4. N[C@@H](Cc1cc(I)c(Oc2cc(I)c(O)c(I)c2)c(I)c1)C(=O)O [LEVOTHYROXINE]
5. C[C@]12CCC(=O)C=C1C=C[C@@H]1[C@@H]2CC[C@@]2(C)[C@H]1CC[C@@]21CCC(=O)O1 [CANRENONE]

RESULT:
["> 10 µM", "> 30 µM", "> 30 µM", "> 30 µM", "> 30 µM"]

###

Give AC50 for every item shown.
# measured target: 5-hydroxytryptamine receptor 2A (Homo sapiens); further: assay procedure not described here
# Sequence (P28223 whole entry): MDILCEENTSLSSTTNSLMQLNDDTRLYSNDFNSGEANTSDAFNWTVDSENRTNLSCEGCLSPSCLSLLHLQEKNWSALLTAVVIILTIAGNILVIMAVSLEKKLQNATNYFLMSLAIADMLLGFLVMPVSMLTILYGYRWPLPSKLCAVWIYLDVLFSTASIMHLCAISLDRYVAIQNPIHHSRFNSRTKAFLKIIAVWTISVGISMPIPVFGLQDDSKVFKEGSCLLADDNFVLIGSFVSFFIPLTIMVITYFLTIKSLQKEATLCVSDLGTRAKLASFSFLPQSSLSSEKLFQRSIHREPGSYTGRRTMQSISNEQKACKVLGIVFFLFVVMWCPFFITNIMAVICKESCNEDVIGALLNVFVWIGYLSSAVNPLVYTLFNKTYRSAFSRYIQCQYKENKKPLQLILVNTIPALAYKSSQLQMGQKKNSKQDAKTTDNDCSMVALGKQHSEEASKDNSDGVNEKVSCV
# Format: functional, cell-based

Example results:
compound | readout kind | value measured
Cc1ccc(S(=O)(=O)NC(=O)N[C@H]2[C@H]3CC[C@@](C)([C@H]2O)C3(C)C)cc1 [GLIBORNURIDE] | AC50 | > 30 µM
CO[C@@H]1[C@@H](OC(N)=O)[C@@H](O)[C@H](Oc2ccc3c(O)c(NC(=O)c4ccc(O)c(CC=C(C)C)c4)c(=O)oc3c2C)OC1(C)C | AC50 | > 30 µM
C#CCN(C)Cc1ccccc1 | AC50 | > 30 µM
C[C@]12CCC(=O)C=C1CC[C@H]1[C@@H]3CC[C@](O)(C(=O)CO)[C@@]3(C)C[C@H](O)[C@@]12F | AC50 | > 30 µM

Please give AC50 for each item listed below.
1. CCCCCCCC(=O)CC[C@@H]1[C@@H](C/C=C\CCCC(=O)O)[C@@H](O)C[C@H]1O
2. CN(C)[C@@H]1C(O)=C(C(=O)NCN2CCCC2)C(=O)[C@@]2(O)C(O)=C3C(=O)c4c(O)cccc4[C@@](C)(O)[C@H]3C[C@@H]12
3. Oc1cc(Cl)ccc1Oc1ccc(Cl)cc1Cl
4. C[C@@H](Cc1ccccc1)N(C)Cc1ccccc1
5. CC(=O)OCC1=C(C(=O)O)N2C(=O)[C@@H](NC(=O)CSc3ccncc3)[C@H]2SC1

RESULT:
1: > 30 µM; 2: > 30 µM; 3: > 30 µM; 4: 22 µM; 5: > 10 µM

Please give AC50 for each item listed below.
1. CCCO[C@H]1[C@@H]([C@@H](COCc2ccc(Cl)cc2)OCc2ccc(Cl)cc2)OC(OCC)[C@@H]1O (some centres undefined) [CLOBENOSIDE]
2. CO/N=C(\C(=O)N[C@@H]1C(=O)N2C(C(=O)[O-])=C(C[n+]3ccc(N)n3CCO)CS[C@H]12)c1csc(N)n1
3. COc1ccc2c3c1O[C@H]1C(=O)CC[C@H]4[C@@H](C2)N(C)CC[C@]314 [HYDROCODONE]
4. CN(C)CCOC(=O)C(c1ccccc1)C1(O)CCCC1 (centres undefined) [CYCLOPENTOLATE]
5. OCC(CO)N[C@H]1C[C@](O)(CO)[C@@H](O)[C@H](O)[C@H]1O
6. Nc1nc(Cl)nc2c1ncn2[C@@H]1O[C@H](CO)[C@@H](O)[C@@H]1F
7. CN(C)CCC(O)(c1ccccc1)c1ccccc1Cl (centres undefined)
8. OCCOCCN1CCN(C(c2ccccc2)c2ccc(Cl)cc2)CC1 (centres undefined) [HYDROXYZINE]

RESULT:
> 30 µM
> 30 µM
> 30 µM
> 10 µM
> 30 µM
> 30 µM
4.4 µM
6 µM

Please give AC50 for each item listed below.
1. Nc1c2c(nc3ccccc13)CCCC2O (centres undefined)
2. Cc1ccc(-c2ncc(Cl)cc2-c2ccc(S(C)(=O)=O)cc2)cn1

RESULT:
1. > 30 µM
2. > 30 µM

###

# measured target: Prothrombin (Homo sapiens); further: assay procedure not described here
# Assay type: functional
readout kind: AC50

compound | readout kind | value measured
Nc1ccn(C[C@@H](CO)OCP(=O)(O)O)c(=O)n1 [CIDOFOVIR] | AC50 | > 30 µM
CC(C)=CCC/C(C)=C/CC/C(C)=C/CC/C(C)=C/CC1=C(C)C(=O)c2ccccc2C1=O [MENATETRENONE] | AC50 | > 30 µM
N=C(N)NCC1COc2ccccc2O1 (centres undefined) [GUANOXAN] | AC50 | > 30 µM

So for `C[C@@H](O)[C@H]1C(=O)N2C(C(=O)O)=C(S[C@@H]3CN[C@H](C(=O)Nc4cccc(C(=O)O)c4)C3)[C@H](C)[C@H]12` , the logged AC50 turned out to be > 30 µM

###

# measured target: Prostaglandin G/H synthase 1 (Homo sapiens); further: assay procedure not described here
# Sequence (P23219 whole entry): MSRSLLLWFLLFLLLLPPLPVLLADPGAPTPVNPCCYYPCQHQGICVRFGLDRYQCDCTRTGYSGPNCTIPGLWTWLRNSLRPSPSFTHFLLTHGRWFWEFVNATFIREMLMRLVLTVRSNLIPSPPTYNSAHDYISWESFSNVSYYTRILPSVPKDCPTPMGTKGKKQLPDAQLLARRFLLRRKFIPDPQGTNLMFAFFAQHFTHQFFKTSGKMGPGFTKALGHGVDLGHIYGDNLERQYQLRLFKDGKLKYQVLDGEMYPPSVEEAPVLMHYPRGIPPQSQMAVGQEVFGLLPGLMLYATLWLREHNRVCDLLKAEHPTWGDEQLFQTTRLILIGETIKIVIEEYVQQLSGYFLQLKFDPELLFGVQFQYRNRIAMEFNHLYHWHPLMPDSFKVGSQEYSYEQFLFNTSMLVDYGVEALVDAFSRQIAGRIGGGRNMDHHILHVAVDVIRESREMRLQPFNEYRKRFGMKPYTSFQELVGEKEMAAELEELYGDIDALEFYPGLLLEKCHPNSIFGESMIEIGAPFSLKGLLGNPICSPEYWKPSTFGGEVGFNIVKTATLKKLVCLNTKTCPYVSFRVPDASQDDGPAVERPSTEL
# Format: functional
Give AC50 for every item shown.

Example results:
molecule | measured target | AC50
Cc1c(C(C)C)c(=O)n(-c2ccccc2)n1C | Prostaglandin G/H synthase 1 (Homo sapiens) | > 30 µM
CCOc1ccc(Cc2nccc3cc(OCC)c(OCC)cc23)cc1OCC | Prostaglandin G/H synthase 1 (Homo sapiens) | > 10 µM
CNC(=O)c1cnn(-c2nc(N)c3ncn([C@@H]4O[C@H](CO)[C@@H](O)[C@H]4O)c3n2)c1 [REGADENOSON ANHYDROUS] | Prostaglandin G/H synthase 1 (Homo sapiens) | > 30 µM
CO[C@H]1/C=C/O[C@@]2(C)Oc3c(C)c(O)c4c(c3C2=O)C2=NC3(CCN(CC(C)C)CC3)NC2=C(NC(=O)/C(C)=C\C=C\[C@H](C)[C@H](O)[C@@H](C)[C@@H](O)[C@@H](C)[C@H](OC(C)=O)[C@@H]1C)C4=O | Prostaglandin G/H synthase 1 (Homo sapiens) | 17.4 µM
CC(C)NC[C@H](O)COc1ccc(O)cc1 | Prostaglandin G/H synthase 1 (Homo sapiens) | 5.86 µM

Please give AC50 for each item listed below.
1. CCn1c(=O)c2c(nc(/C=C/c3ccc(OC)c(OC)c3)n2C)n(CC)c1=O
2. Cc1cccc(C)c1NC(=O)c1cc(S(N)(=O)=O)c(Cl)cc1O [XIPAMIDE]

RESULT:
["> 30 µM", "> 30 µM"]

Please give AC50 for each item listed below.
1. CC(=O)Nc1ccc(/C=N/NC(N)=S)cc1
2. COc1cc(C(=O)NCc2ccc(OCCN(C)C)cc2)cc(OC)c1OC [TRIMETHOBENZAMIDE]
3. Oc1ccc(OCc2ccccc2)cc1

RESULT:
1: > 30 µM; 2: > 30 µM; 3: 7.88 µM

###

# measured target: 5-hydroxytryptamine receptor 2B (Homo sapiens); further: assay procedure not described here
# Sequence (P41595 whole entry): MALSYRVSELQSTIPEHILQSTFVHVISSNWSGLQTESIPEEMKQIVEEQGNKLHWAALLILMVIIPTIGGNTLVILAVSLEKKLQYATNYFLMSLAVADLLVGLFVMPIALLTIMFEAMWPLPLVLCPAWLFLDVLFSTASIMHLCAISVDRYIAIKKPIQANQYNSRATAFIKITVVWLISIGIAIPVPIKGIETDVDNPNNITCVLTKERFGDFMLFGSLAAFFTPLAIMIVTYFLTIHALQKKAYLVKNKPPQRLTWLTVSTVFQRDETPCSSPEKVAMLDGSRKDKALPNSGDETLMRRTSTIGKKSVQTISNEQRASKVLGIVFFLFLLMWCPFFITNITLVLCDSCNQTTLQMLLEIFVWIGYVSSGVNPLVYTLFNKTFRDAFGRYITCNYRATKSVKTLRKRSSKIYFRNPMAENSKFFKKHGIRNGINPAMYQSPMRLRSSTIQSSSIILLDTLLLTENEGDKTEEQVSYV
# Format: functional, cell-based
readout kind: AC50

Example results:
compound | AC50
Cc1nnc2n1-c1ccc(Cl)cc1C(c1ccccc1)=NC2 [ALPRAZOLAM] | > 10 µM
COC(=O)[C@H]1[C@H]2C[C@@H]3c4[nH]c5ccccc5c4CCN3C[C@H]2C[C@@H](OC(=O)c2cc(OC)c(OC)c(OC)c2)[C@@H]1OC [DESERPIDINE] | > 10 µM
CC(=O)[C@@]1(O)CC[C@H]2[C@@H]3C[C@H](C)C4=CC(=O)C=C[C@]4(C)[C@@]3(F)[C@@H](O)C[C@@]21C [FLUOROMETHOLONE] | > 10 µM
CC(=O)OCC(=O)[C@@]1(O)CC[C@H]2[C@@H]3CCC4=CC(=O)CC[C@]4(C)[C@@]3(F)[C@@H](O)C[C@@]21C [FLUDROCORTISONE ACETATE] | > 30 µM
CCN(CC)C(C)C(=O)c1ccccc1 (configuration not stated) [DIETHYLPROPION] | > 10 µM
O=C(O)COC(=O)Cc1ccccc1Nc1c(Cl)cccc1Cl [ACECLOFENAC] | > 10 µM

Please give AC50 for each item listed below.
1. CC1NCCOC1c1ccccc1 (configuration not stated) [PHENMETRAZINE]
2. CC(C)(C)NCC(O)COc1cccc2c1CC(O)C(O)C2 (configuration not stated) [NADOLOL]
3. COC(=O)CCc1ccc(OCC(O)CNC(C)C)cc1 (configuration not stated) [ESMOLOL]
4. CN(C)[C@@H]1C(O)=C(C(=O)NCN2CCCC2)C(=O)[C@@]2(O)C(O)=C3C(=O)c4c(O)cccc4[C@@](C)(O)[C@H]3C[C@@H]12 [ROLITETRACYCLINE]

RESULT:
["> 10 µM", "> 10 µM", "> 30 µM", "> 10 µM"]
